Target under test: T1, human DLL4, full length, on cells (human, UniProt Q9NR61 27-685)
T1 construct: also called huDLL4 cells; human DLL4-293G
T1 sequence (Q9NR61 27-685 limits assumed): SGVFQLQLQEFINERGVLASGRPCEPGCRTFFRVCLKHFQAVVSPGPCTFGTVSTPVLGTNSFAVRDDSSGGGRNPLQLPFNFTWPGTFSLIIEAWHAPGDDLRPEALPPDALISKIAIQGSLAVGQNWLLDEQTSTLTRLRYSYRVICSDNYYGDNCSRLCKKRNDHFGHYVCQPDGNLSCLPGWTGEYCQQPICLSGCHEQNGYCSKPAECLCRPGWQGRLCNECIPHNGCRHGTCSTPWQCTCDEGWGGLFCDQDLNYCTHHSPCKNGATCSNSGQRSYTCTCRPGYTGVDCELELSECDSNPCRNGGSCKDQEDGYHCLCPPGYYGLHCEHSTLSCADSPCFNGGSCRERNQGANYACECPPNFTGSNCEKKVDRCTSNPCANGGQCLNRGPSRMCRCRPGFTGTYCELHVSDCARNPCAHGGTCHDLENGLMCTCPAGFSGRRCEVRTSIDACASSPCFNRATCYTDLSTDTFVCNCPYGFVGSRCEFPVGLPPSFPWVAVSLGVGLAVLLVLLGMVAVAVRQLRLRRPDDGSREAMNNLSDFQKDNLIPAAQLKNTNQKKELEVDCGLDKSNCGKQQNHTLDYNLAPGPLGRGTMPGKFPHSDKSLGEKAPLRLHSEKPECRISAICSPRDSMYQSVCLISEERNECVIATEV
Experiment description: FACS, DLL4 cells
Experimental: Stable cell lines overexpressing cell-surface DLL4 were harvested from tissue culture flasks, washed four times and resuspended in phosphate buffered saline (PBS) containing 1% bovine serum albumin and 1 mM CaCl₂ (FACS buffer). […] Fluorescence was measured using a Becton Dickinson FACSCalibur-HTS (Becton Dickinson, San Jose, Calif., US). […] The good binder variants, as determined by binding ELISA, were assessed by Biacore (Example 1.1) concurrently with cell based assay screens. […]
# pEC50 per record follows
// returns pEC50 (minus log10 of molar concentration), number only

See these solved cases before continuing.
h38H12.8 (antibody, V domains shown, humanized IgG; also called VH.1a/VL.2a 38H12) VH: EVQLVESGGGVVQPGRSLRLSCAASGFTFSNYGMYWIRQAPGKGLEWVAFISHGGGITYYRDSVKGRFTISRDNSKSTLYLQMNSLRAEDTAVYHCAALNWELGIDYWGQGTMVTVSS VL: EIVMTQSPATLSVSPGERATLSCRASEDIYSNLAWYQKKPGQSPRLLIYAANRLQDGVPARFSGSGSGTEYTLTISSLQSEDFAVYFCLQGSKFPLTFGQGTKLEIKR : 7.70
h38H12.1 (antibody, V domains shown, humanized IgG; also called VH.1/VL.1 38H12) VH: EVQLVESGGGVVQPGRSLRLSCAASGFTFSNYGMYWVRQAPGKGLEWVAFISHGGGITYYRDSVKGRFTISRDNSKNTLYLQMNSLRAEDTAVYYCARLNWELGIDYWGQGTMVTVSS VL: DIQMTQSPSSLSASVGDRVTITCRASEDIYSNLAWYQQKPGKAPKLLIYAANRLQDGVPSRFSGSGSGTDFTLTISSLQPEDFATYYCLQGSKFPLTFGQGTKLEIKR : 7.75
h38H12.13 (antibody, V domains shown, humanized IgG; also called VH.2a/VL.1 38H12) VH: EVQLVESGGGLVQPGGSLRLSCAASGFTFSNYGMYWIRQAPGKGLEWVAFISHGGGITYYRDSVKGRFTISRDNSKSTLYLQMNSLRAEDTAVYHCAALNWELGIDYWGQGTMVTVSS VL: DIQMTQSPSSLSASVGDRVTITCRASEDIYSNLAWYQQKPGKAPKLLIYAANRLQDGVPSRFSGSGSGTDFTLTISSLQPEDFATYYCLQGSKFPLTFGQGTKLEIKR : 8.59
h38H12.10 (antibody, V domains shown, humanized IgG; also called VH.1b/VL.1a 38H12) VH: EVQLVESGGGVVQPGRSLRLSCAASGFTFSNYGMYWVRQAPGKGLEWVAFISHGGGITYYRDSVKGRFTISRDNSKNTLYLQMNSLRAEDTAVYYCAALNWELGIDYWGQGTMVTVSS VL: DIQMTQSPSSLSASVGDRVTITCRASEDIYSNLAWYQKKPGKSPKLLIYAANRLQDGVPSRFSGSGSGTDYTLTISSLQPEDFATYFCLQGSKFPLTFGQGTKLEIKR : 8.60

Shift focus to the following entry.
Consider the binder shown here: h38H12.7 (antibody, V domains shown, humanized IgG; also called VH.1a/VL.1b 38H12) VH: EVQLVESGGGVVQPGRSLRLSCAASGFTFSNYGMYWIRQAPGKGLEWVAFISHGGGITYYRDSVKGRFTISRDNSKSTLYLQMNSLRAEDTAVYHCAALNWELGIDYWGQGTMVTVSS VL: DIQMTQSPSSLSASVGDRVTITCRASEDIYSNLAWYQQKPGKAPKLLIYAANRLQDGVPSRFSGSGSGTDYTLTISSLQPEDFATYYCLQGSKFPLTFGQGTKLEIKR What is its recorded pEC50? 7.72
